experiment: Inhibition of [3H]pentazocine binding to Sigma opioid receptor type 1
reported endpoint: pKi
Please keep in mind that pKi is minus log10 of the molar concentration; only the number is needed.

// worked examples, pKi included
compound | pKi
CC1(C)C2CC[C@]1(C)CN(CCCC1CCCCC1)C2 | 8.60
CC1(C)C2CC[C@]1(C)CN(CCCCC1CCCCC1)C2 | 8.92
CC1(C)C2CC[C@]1(C)CN(CCC1CCCC1)C2 | 8.77
CC1(C)C2CC[C@]1(C)CN(C1CCCCC1)C2 | 8.52
CC1(C)C2CC[C@]1(C)CN(CCC1C3CC4CC(C3)CC1C4)C2 (some centres not stated) | 8.37
CC1(C)C2CC[C@@]1(C)CN(CCC1CCCCC1)C2 | 8.85

Quick one: pKi of CC1(C)C2CC[C@]1(C)CN(CC1CCCCC1)C2 ?
8.89

====

experiment: Inhibition of [3H]pentazocine binding to Sigma opioid receptor type 1
reported endpoint: Ki
Answer with the number, then the unit.

Here are 4 compounds together with their reported answers.
smiles input | endpoint value
CC1(C)C2CC[C@]1(C)CN(CCC1CCCCC1)C2 | 2.2 nM
CC1(C)C2CC[C@@]1(C)CN(CC1CCCCC1)C2 | 1.1 nM
CC1(C)C2CC[C@]1(C)CN(CCC1CCCCCCC1)C2 | 2.9 nM
C=CCN1CC[C@@]2(C)c3cc(O)ccc3C[C@H]1[C@H]2C | 157 nM

Moving on to another compound below.
Item CC1(C)C2CC[C@]1(C)CN(CCC1CCCCCC1)C2 has what recorded Ki?
2.9 nM

From: BindingDB's records for doi:10.1016/S0960-894X(97)00417-4
